Target Of Assay: A3G-sNTD (Homo sapiens)
Sequence (Q9HC16 1-196): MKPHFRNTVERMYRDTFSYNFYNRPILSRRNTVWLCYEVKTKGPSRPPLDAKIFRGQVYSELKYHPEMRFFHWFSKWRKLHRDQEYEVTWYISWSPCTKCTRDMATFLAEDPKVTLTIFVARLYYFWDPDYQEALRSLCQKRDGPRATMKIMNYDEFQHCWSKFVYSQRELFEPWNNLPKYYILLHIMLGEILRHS
Property Name: Kd (µM)
Give bare numbers, in µM.

### Prompt Identify the reported Kd for the following entry. CCCCn1c(SCc2c(C)noc2C)nc2cc(S(N)(=O)=O)ccc21 [MM-2]
### Response 19.9
